Test: Statistical significance (p value) compared to positive control by Students t-test
Type: ADME
measured quantity: Significance

A selection of reference data follows.
Returns the measured Significance for the input molecule. Input: CCCOc1c(OCCC)c(OC(=O)CC)c2cc(Cl)ccc2c1OC(=O)CC <= 0.001

Returns the measured Significance for the input molecule. Input: COc1c(OC)c(OC(=O)C(C)(C)C)c2c(OC)cccc2c1OC(=O)C(C)(C)C <= 0.01

Returns the measured Significance for the input molecule. Input: CCC(=O)Oc1c(OC)c(OC)c(OC(=O)CC)c2cc(OC)ccc12 <= 0.01

Returns the measured Significance for the input molecule. Input: CCOc1c(OCC)c(OC(C)=O)c2cc(Cl)ccc2c1OC(C)=O <= 0.001

Returns the measured Significance for the input molecule. Input: COc1c(OC)c(OC(=O)C(C)C)c2cc(Cl)ccc2c1OC(=O)C(C)C <= 0.01

Returns the measured Significance for the input molecule. Input: COc1c(OC)c(OC(=O)c2ccccc2)c2cc(Cl)ccc2c1OC(=O)c1ccccc1 <= 0.05

Returns the measured Significance for the input molecule. Input: COc1c(OC)c(OC(C)=O)c2c(C#N)cccc2c1OC(C)=O <= 0.01

Returns the measured Significance for the input molecule. Input: CCOc1c(OCC)c(OC(=O)C(C)C)c2cc(Cl)ccc2c1OC(=O)C(C)C <= 0.05

Returns the measured Significance for the input molecule. Input: COc1c(OC)c(OC(C)=O)c2c(OC)cccc2c1OC(C)=O <= 0.01

Returns the measured Significance for the input molecule. Input: CCC(=O)Oc1c(OC)c(OC)c(OC(=O)CC)c2cc(C)ccc12 <= 0.001

---
Returns the measured Significance for the input molecule. Input: COc1c(OC)c(OC(C)=O)c2cc(C)ccc2c1OC(C)=O <= 0.001

Returns the measured Significance for the input molecule. Input: CCCC(=O)Oc1c(OC)c(OC)c(OC(=O)CCC)c2ccccc12 <= 0.001

Returns the measured Significance for the input molecule. Input: CCCC(=O)Oc1c(OC)c(OC)c(OC(=O)CCC)c2cc(Cl)ccc12 <= 0.001

Returns the measured Significance for the input molecule. Input: CCCOc1c(OCCC)c(OC(C)=O)c2cc(Cl)ccc2c1OC(C)=O <= 0.001

###

Assay: Statistical significance (p value) compared to positive control by Students t-test
Type: ADME
measured quantity: Significance

Returns the measured Significance for the input compound. Input: CCC(=O)Oc1c(OC)c(OC)c(OC(=O)CC)c2cc(C)c(C)cc12 <= 0.001

Returns the measured Significance for the input compound. Input: COc1c(OC)c(OC(C)=O)c2cc(F)ccc2c1OC(C)=O <= 0.001
